- targetUnderTest: UniProt P14618
- Sequence (P14618 whole entry): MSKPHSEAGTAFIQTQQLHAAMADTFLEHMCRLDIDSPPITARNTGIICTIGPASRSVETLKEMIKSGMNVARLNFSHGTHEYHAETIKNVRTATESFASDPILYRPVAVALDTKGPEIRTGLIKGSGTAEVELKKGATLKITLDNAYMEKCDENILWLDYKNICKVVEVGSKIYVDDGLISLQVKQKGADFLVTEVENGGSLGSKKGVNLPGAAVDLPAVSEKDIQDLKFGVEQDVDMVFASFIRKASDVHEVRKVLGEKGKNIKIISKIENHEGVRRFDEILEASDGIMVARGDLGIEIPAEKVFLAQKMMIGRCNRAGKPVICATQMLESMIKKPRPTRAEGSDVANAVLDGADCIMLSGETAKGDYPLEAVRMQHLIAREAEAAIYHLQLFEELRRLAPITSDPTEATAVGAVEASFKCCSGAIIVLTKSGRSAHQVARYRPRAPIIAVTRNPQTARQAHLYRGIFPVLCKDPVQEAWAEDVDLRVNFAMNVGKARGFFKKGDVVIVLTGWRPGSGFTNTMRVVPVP
- testDescription: luminescent pyruvate kinase-luciferase coupled assay
- Assay type: biochemical
quantity: PKM2 activation, result in words

Cc1ccc(NS(=O)(=O)c2cc3c(cc2N2CCC(N(C)C)C2)NC(=O)CC3)cc1C (centres unmarked): loss of activity
Cc1ccc(NS(=O)(=O)c2cc3c(cc2N(C)C)NC(=O)CC3)cc1C: retained activity
CNc1cc2c(cc1S(=O)(=O)Nc1ccc(C)c(C)c1)CCC(=O)N2: retained activity
Cc1ccc(NS(=O)(=O)c2cc(N[C@@H](C)CO)cc3c2NC(=O)CC3)cc1Cl [Compound 77b]: inactive
Cc1ccc(NS(=O)(=O)c2cc3c(cc2N2CCCCC2)NC(=O)CC3)cc1C: loss of activity
Cc1ccc(NS(=O)(=O)c2cc(N[C@@H](C)CO)cc3c2NC(=O)CC3)cc1C [Compound 76b]: inactive
Cc1ccc(NS(=O)(=O)c2cc(Br)cc3c2NC(=O)CC3)cc1C [Compound 74b]: no activity
Cc1ccc(NS(=O)(=O)c2cc(Br)cc3c2NC(=O)CC3)cc1Cl [Compound 75b]: no activity

These data points were gathered from paper PMC3224553.
